Biological target: T1, E. coli GrpE (Escherichia coli, UniProt P09372 1-197)
T1 construct: also called co-chaperone GrpE; nucleotide exchange factor GrpE; source: E. coli (DE3) Rosetta pLysS, purified (IMAC, TEV cleavage, second IMAC)
T1 sequence: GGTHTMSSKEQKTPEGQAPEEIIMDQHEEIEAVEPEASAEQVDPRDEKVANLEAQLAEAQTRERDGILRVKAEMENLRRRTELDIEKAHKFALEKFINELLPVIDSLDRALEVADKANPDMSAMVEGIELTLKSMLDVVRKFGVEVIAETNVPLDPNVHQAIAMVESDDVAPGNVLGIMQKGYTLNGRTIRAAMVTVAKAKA
Experiment: fluorescence polarisation; direct titration: protein serially diluted twofold in 23 steps, Cf-labeled peptide added (20 µL of 40 nmol/L to 20 µL); FP-buffer 20 mmol/L Tris-HCl, 150 mmol/L KCl, 5 mmol/L MgCl2, 1 mmol/L NaN3, 2 mmol/L DTT, pH 7.5; 2 h, 28°C, dark
Conditions: both partners purified
pKd: −log10 of the molar value. Ends that are not written are not given here. Cf = 5(6)-carboxyfluorescein label
observable: pKd

### Prompt Entry Cf-RPDKPRPYLPRPRPPRPVR (also called 5(6)-carboxyfluorescein-labeled ARV-1502; source: synthetic peptide, in-house (Fmoc/tBu chemistry on Rink amide resin), RP-HPLC purified) [Cf-ARV-1502] needs its pKd filled in; supply it.
### Response ~3.67
